Quick list: pIC50 per entry.
- System name: MAPKAP-K2 (Homo sapiens, UniProt P49137)
- Sequence (P49137 whole entry): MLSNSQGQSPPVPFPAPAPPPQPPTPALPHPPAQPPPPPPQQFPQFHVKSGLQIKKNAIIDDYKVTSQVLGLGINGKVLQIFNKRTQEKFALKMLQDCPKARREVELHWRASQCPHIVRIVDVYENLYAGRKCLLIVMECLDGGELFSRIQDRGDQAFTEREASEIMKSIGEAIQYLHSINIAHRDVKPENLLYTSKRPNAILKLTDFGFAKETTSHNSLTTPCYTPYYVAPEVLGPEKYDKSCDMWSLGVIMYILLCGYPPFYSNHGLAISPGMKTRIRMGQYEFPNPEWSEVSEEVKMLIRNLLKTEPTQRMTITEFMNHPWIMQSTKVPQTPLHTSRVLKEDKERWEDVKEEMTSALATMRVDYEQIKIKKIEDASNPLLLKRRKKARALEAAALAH
- Protocol details: MAPKAP-K2 enzyme activity inhibition assay, Method B (33P-ATP, MultiScreen-PH plate)
- Assay type: biochemical
- Measurement parameters: recombinant human MAPKAP-K2, 0.5% DMSO, 30 min room temperature, read-out: Inhibitory activity (MAPKAP-K2 IC50 class)
pIC50: −log10 of the molar value.

Check out these entries, answers already filled in.
Compound	Data value
Cc1c(O[C@H]2CC[C@H](N)CC2)nc2ccnn2c1Nc1ccc(OCCOCc2ccccc2)cc1	≥ 5.70
CCOc1ccc(Nc2c(C)c(OCCCN)nc3ccnn23)cc1	4.00 to 4.70

Task: Endpoint output: pIC50 of Cc1c(OC2CCCNC2)nc2ccnn2c1Nc1cc(OC2CCCNC2)c(C#N)cc1F (stereo not drawn) . Value?
Output: 4.00 to 4.70

Task: Query (compound): "CCOc1ccc(Nc2c(C)c(O[C@@H]3CN(C(=O)OCc4ccccc4)CC[C@H]3CC(=O)NCc3ccccc3)nc3ccnn23)cc1" ; field requested: pIC50
Output: 4.00 to 4.70

Task: # get_value(readout='pIC50', item= c1ccc(COc2ccc(Nc3c(-c4ccccc4)c(OC4CCCNC4)nc4ccnn34)cc2)cc1 (stereo not drawn) )
Output: 4.70 to 5.70

Task: Would you mind telling me what pIC50 value was observed for CCOc1ccc(Nc2c(C)c(OCC(N)CC)nc3ccnn23)cc1 (stereo not drawn) ?
Output: 4.00 to 4.70

Task: // returns reported pIC50 for input "CCOc1ccc(Nc2c(C)c(O[C@@H]3CNCC[C@H]3CCO)nc3ccnn23)cc1"
Output: ≥ 5.70

Task: Give its pIC50 value. Item: "CCOc1ccc(Nc2c(C)c(OCC(C)=O)nc3ccnn23)cc1"
Output: 4.00 to 4.70

Task: pIC50 lookup needed for "CSc1nc2ccc(Nc3c(C)c(O[C@H]4CC[C@@H](N)CC4)nc4ccnn34)cc2s1" , thanks.
Output: ≥ 5.70

Task: Form field: reported pIC50 of Cc1c(OC2CCCNC2)nc2ccnn2c1NC1CCCC1 (stereo not drawn)
Output: 4.70 to 5.70

Task: What value of measured pIC50 is listed for "CCOc1ccc(Nc2c(CCCO)c(O[C@H]3CC[C@H](N)CC3)nc3ccnn23)cc1" ?
Output: ≥ 5.70

Task: Look up pIC50 for this compound: "CCOc1ccc(Nc2c(C)c(OC3CCNCC3)nc3ccnn23)cc1"
Output: ≥ 5.70

Task: What value of pIC50 has been reported for the following compound? CCOc1ccc(Nc2c(C)c(O[C@@H]3CNCC[C@H]3CC(N)=O)nc3ccnn23)cc1 (racemic)
Output: 4.70 to 5.70

Task: Tell me the measured pIC50 of COc1ccc(Cl)cc1Nc1c(C)c(OC2CCCNC2)nc2ccnn12 (stereo not drawn) , please.
Output: 4.00 to 4.70

Task: For the compound shown here, Cc1c(OC2CCCNC2)nc2ccnn2c1Nc1ccc(Cc2ccccc2)cc1 (stereo not drawn) , give the reported pIC50.
Output: 4.70 to 5.70

Task: Query (compound): "CCn1c2ccccc2c2cc(Nc3c(C)c(O[C@H]4CC[C@@H](N)CC4)nc4ccnn34)ccc21" ; field requested: pIC50
Output: ≥ 5.70

Task: Reported pIC50 for CCOc1ccc(Nc2c(C)c(OCC3CCCNC3)nc3ccnn23)cc1 (stereo not drawn) : what is it?
Output: 4.70 to 5.70

Task: Give the measured pIC50 of CCOc1ccc(Nc2c(C)c(OCC3CCCCN3)nc3ccnn23)cc1 (stereo not drawn) .
Output: 4.00 to 4.70

Task: What does the record list as pIC50 for "CCOc1ccc(Nc2c(C)c(O[C@@H]3CCNC3)nc3ccnn23)cc1" ?
Output: 4.00 to 4.70

Task: Endpoint output: pIC50 of Cc1c(OC2CCCNC2)nc2ccnn2c1Nc1ccc(OC(F)(F)F)c(Cl)c1 (stereo not drawn) . Value?
Output: 4.70 to 5.70

Task: Dear colleague, I am looking for the recorded pIC50 of the following compound: CC(=O)c1ccc(Nc2c(C)c(OC3CCCNC3)nc3ccnn23)cc1 (stereo not drawn)
Output: 4.70 to 5.70

Task: For the compound shown here, Cc1c(OC2CCCNC2)nc2ccnn2c1NCc1ccccc1 (stereo not drawn) , give the reported pIC50.
Output: 4.70 to 5.70

Task: I would be grateful if you could share the reported pIC50 for "CCc1c(O[C@H]2CC[C@@H](N)CC2)nc2ccnn2c1Nc1ccc(I)cc1" .
Output: ≥ 5.70

Task: Tell me the measured pIC50 of "Cc1c(O[C@H]2CC[C@H](N)CC2)nc2ccnn2c1Nc1ccc(-c2cccc(N)c2)cc1" , please.
Output: ≥ 5.70

Each recorded value in this set is attributed to patent US7667036B2.
